Below, each entry is listed with its recorded CC50.
Test: Cytotoxicity activity against human HepG2 cells assessed by CellTiter-Glo luminescent cell viability assay.
Type: toxicity, cell-based
Design: assay stage confirmatory assay, source tissue liver
Conditions: HepG2 cells, read-out: IC50 relative
Structures can show the parent of a compound that is named as a salt. Calls of active or inactive are those of the source. The rule behind the calls is not given here.
outcome_measure: CC50

1. CC(C)NC(=O)N1CC(Oc2ccc(-c3noc(-c4cccnc4)n3)cc2)C1 = 3.4 µM (active)
2. COc1cc2c(NC3CCN(C4CCCCC4)CC3)nc(N3CCCN(C(C)C)CC3)nc2cc1OCCCN1CCCCC1 = 6.6 µM (active)
3. CNc1nc(Nc2ccc(C(=O)N3CCOCC3)cc2OC)nc2[nH]cc(Cl)c12 = 5 µM (active)
4. CCCCCCOC(=O)NC(=N)c1ccc(NCc2nc3cc(C(=O)N(CCC(=O)OCC)c4ccccn4)ccc3n2C)cc1 [DABIGATRAN ETEXILATE MESYLATE] = 10.2 µM (active)

* * *

Assay: Cytotoxicity activity against human HepG2 cells assessed by CellTiter-Glo luminescent cell viability assay.
Format: toxicity, cell-based
Design: assay stage confirmatory assay, source tissue liver
Settings: HepG2 cells, read-out: IC50 relative
Activity calls are given as the source filed them. How the calls were made is not given here.
Outcomes: true (1) for active, false (0) for inactive

1. CCCCNc1ncc2c(-c3ccc(CN4CCN(C)CC4)cc3)cn([C@H]3CC[C@H](O)CC3)c2n1 = true (1)
2. C=C(C)[C@@H]1Cc2c(ccc3c2O[C@H]2COc4cc(OC)c(OC)cc4[C@H]2C3=O)O1 = true (1)
3. CN1CCC2(CC1)CN(S(=O)(=O)c1ccc(Cl)s1)Cc1ccccc1O2 = true (1)
4. Nc1nc(C2CC(N)C2)cc(N2CCC(OCc3ccccc3)CC2)n1 (configuration not stated) = true (1)
5. O=S(=O)(c1ccc(S(=O)(=O)N2CCOc3ccccc32)cc1)N1CCCC1 = true (1)
6. C[C@@H](c1ccccc1F)N(Cn1ncc(Cl)c(Cl)c1=O)C1CC1 = true (1)
7. COc1cc2c(Nc3ccc(Br)cc3F)ncnc2cc1OCC1CCN(C)CC1 = true (1)
8. COc1ccccc1C(=O)Nc1ccccn1 = false (0)
9. CCOc1cc2ncc(C#N)c(Nc3ccc(F)c(Cl)c3)c2cc1NC(=O)/C=C/CN(C)C = true (1)
10. COc1ccc2[nH]c(C(=O)c3ccccc3)cc2c1 = false (0)
11. Cc1cc2c(cc1S(=O)(=O)Nc1cccc(F)c1)OCC(=O)N2 = false (0)
12. Cc1cnc(NC(=O)Nc2cc(Br)c(C)cc2OC[C@@H]2CNCCO2)cn1 = true (1)
13. CN[C@@H](C)C(=O)N[C@H](C(=O)N1CCC[C@H]1C(=O)N[C@H]1c2ccccc2C[C@H]1OCC#CC#CCO[C@@H]1Cc2ccccc2[C@@H]1NC(=O)[C@@H]1CCCN1C(=O)[C@@H](NC(=O)[C@H](C)NC)C1CCCCC1)C1CCCCC1 = true (1)
14. CN(C)C/C=C/C(=O)Nc1cc2c(Nc3ccc(F)c(Cl)c3)ncnc2cc1O[C@H]1CCOC1 [AFATINIB DIMALEATE] = true (1)
15. N=C(N)c1ccc(OCCCCCOc2ccc(C(=N)N)cc2)cc1 [PENTAMIDINE ISETHIONATE] = true (1)
16. Cc1ccc(/N=c2\ssnc2Cl)nc1 = false (0)
17. CCCN1C(=O)COc2ccc(-c3csc(NC(=O)CC(C)C)n3)cc21 = false (0)
